Reference source for all entries: ChEMBL document CHEMBL1138716

Target: Carbonic anhydrase (Methanobacterium thermoautotrophicum, UniProt Q50565)
Sequence (Q50565 whole entry): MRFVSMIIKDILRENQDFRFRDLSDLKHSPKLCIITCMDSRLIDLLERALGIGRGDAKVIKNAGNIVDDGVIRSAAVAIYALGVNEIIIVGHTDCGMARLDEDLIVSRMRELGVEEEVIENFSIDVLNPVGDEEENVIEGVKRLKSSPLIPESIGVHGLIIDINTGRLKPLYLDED
pKi: −log10 of the molar value.
Lab note: compare pKi against 4. Equal or greater, write Fulfilled. Smaller, write Not fulfilled.

MOLECULE	MEASUREMENT TARGET	LABEL CLASS
NS(N)(=O)=O [SULFAMIDE]	Carbonic anhydrase (Methanobacterium thermoautotrophicum, UniProt Q50565)	Not fulfilled

input: Given Nc1ccc(S(N)(=O)=O)cc1 [SULFANILAMIDE] , state whether its pKi is at least 4.
output: Fulfilled

input: Given "NCCc1ccc(S(N)(=O)=O)cc1" , state whether its pKi is at least 4.
output: Fulfilled

input: Given CC1(C)O[C@@H]2[C@@H](CO[C@@]3(COS(N)(=O)=O)OC(C)(C)O[C@@H]23)O1 [TOPIRAMATE] , state whether its pKi is at least 4.
output: Fulfilled

input: Given NCc1ccc(S(N)(=O)=O)cc1 [MAFENIDE] , state whether its pKi is at least 4.
output: Fulfilled

input: Given Cc1ccc(-c2cc(C(F)(F)F)nn2-c2ccc(S(N)(=O)=O)cc2)cc1 [CELECOXIB] , state whether its pKi is at least 4.
output: Fulfilled

input: Given "Nc1ccc(S(N)(=O)=O)cc1F" , state whether its pKi is at least 4.
output: Fulfilled

input: Given NS(=O)(=O)O [SULFAMATE] , state whether its pKi is at least 4.
output: Not fulfilled

###

Measured log10(Ki) by item
molecular target: Carbonic anhydrase (Methanosarcina thermophila, UniProt P40881)
Reminder: these figures are log10 of reported Ki, in nM before transformation.

For orientation, consider the following solved cases.
COMPOUND	MEASUREMENT TARGET	log10(Ki)
Cc1ccc(-c2cc(C(F)(F)F)nn2-c2ccc(S(N)(=O)=O)cc2)cc1	Carbonic anhydrase (Methanosarcina thermophila, UniProt P40881)	3.00
Nc1ccc(S(N)(=O)=O)cc1F	Carbonic anhydrase (Methanosarcina thermophila, UniProt P40881)	2.62
Nc1ccc(S(N)(=O)=O)cc1Br	Carbonic anhydrase (Methanosarcina thermophila, UniProt P40881)	2.45
Nc1ccc(S(=O)(=O)NCc2ccc(S(N)(=O)=O)cc2)cc1	Carbonic anhydrase (Methanosarcina thermophila, UniProt P40881)	3.80
Nc1ccc(S(N)(=O)=O)cc1Cl	Carbonic anhydrase (Methanosarcina thermophila, UniProt P40881)	2.87

input: Request - read-out log10(Ki) | tested on Carbonic anhydrase (Methanosarcina thermophila, UniProt P40881) | compound NCc1ccc(S(N)(=O)=O)cc1 [MAFENIDE]
output: 3.93

input: Request - read-out log10(Ki) | tested on Carbonic anhydrase (Methanosarcina thermophila, UniProt P40881) | compound "NNc1ccc(S(N)(=O)=O)cc1"
output: 2.34

input: Request - read-out log10(Ki) | tested on Carbonic anhydrase (Methanosarcina thermophila, UniProt P40881) | compound NS(N)(=O)=O [SULFAMIDE]
output: 3.78

input: Request - read-out log10(Ki) | tested on Carbonic anhydrase (Methanosarcina thermophila, UniProt P40881) | compound CCOc1ccc2nc(S(N)(=O)=O)sc2c1 [ETHOXZOLAMIDE]
output: 2.87

input: Request - read-out log10(Ki) | tested on Carbonic anhydrase (Methanosarcina thermophila, UniProt P40881) | compound "Nc1ccc(S(N)(=O)=O)cc1I"
output: 2.82

input: Request - read-out log10(Ki) | tested on Carbonic anhydrase (Methanosarcina thermophila, UniProt P40881) | compound Nc1ccc(S(N)(=O)=O)cc1 [SULFANILAMIDE]
output: 3.59

input: Request - read-out log10(Ki) | tested on Carbonic anhydrase (Methanosarcina thermophila, UniProt P40881) | compound CC1(C)O[C@@H]2[C@@H](CO[C@@]3(COS(N)(=O)=O)OC(C)(C)O[C@@H]23)O1 [TOPIRAMATE]
output: 2.08

input: Request - read-out log10(Ki) | tested on Carbonic anhydrase (Methanosarcina thermophila, UniProt P40881) | compound "Nc1cccc(S(N)(=O)=O)c1"
output: 3.09

input: Request - read-out log10(Ki) | tested on Carbonic anhydrase (Methanosarcina thermophila, UniProt P40881) | compound NS(=O)(=O)O [SULFAMATE]
output: 3.53

###

Target: Carbonic anhydrase (Methanosarcina thermophila, UniProt P40881)
Sequence (P40881 whole entry): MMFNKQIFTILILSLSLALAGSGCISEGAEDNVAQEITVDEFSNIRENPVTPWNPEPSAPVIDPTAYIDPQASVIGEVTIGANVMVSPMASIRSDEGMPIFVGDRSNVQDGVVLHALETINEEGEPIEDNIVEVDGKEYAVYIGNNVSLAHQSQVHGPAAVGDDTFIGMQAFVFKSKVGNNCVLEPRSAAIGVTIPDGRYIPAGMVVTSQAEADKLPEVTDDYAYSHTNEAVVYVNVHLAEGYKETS
Measured Ki by item
A complete answer gives the number followed by the unit.

For orientation, consider the following solved cases.
COMPOUND	READOUT LABEL	MEAS VALUE
Cc1ccc(-c2cc(C(F)(F)F)nn2-c2ccc(S(N)(=O)=O)cc2)cc1	Ki	140 nM
Nc1ccc(S(N)(=O)=O)cc1F	Ki	970 nM
Nc1ccc(S(N)(=O)=O)cc1I	Ki	280 nM
NNc1ccc(S(N)(=O)=O)cc1	Ki	2200 nM
Nc1ccc(S(N)(=O)=O)cc1Br	Ki	1720 nM

input: Any idea what its Ki is? The compound is Nc1ccc(S(N)(=O)=O)cc1 [SULFANILAMIDE]
output: 250 nM

input: Any idea what its Ki is? The compound is "Nc1ccc(S(N)(=O)=O)cc1Cl"
output: 140 nM

###

Protein target, amino acids: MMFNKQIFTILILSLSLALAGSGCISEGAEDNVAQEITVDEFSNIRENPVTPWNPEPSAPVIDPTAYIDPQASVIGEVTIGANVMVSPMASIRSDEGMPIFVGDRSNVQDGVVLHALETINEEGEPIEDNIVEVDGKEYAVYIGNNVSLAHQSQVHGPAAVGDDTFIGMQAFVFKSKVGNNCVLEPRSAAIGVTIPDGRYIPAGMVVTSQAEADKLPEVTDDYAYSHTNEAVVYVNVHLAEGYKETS
Measured pKi by item
Units for pKi: none; it is -log10 of a concentration expressed in mol/L.

For orientation, consider the following solved cases.
MOLECULE	pKi
Nc1ccc(S(=O)(=O)NCc2ccc(S(N)(=O)=O)cc2)cc1	6.74
NCc1ccc(S(N)(=O)=O)cc1 [MAFENIDE]	6.46
NS(=O)(=O)O [SULFAMATE]	7.05

input: Any idea what its pKi is? The molecule is "Nc1cccc(S(N)(=O)=O)c1"
output: 6.77
